# testedOn: USP9X (UniProt Q93008)
# Sequence (Q93008 whole entry, the tested form may be a part): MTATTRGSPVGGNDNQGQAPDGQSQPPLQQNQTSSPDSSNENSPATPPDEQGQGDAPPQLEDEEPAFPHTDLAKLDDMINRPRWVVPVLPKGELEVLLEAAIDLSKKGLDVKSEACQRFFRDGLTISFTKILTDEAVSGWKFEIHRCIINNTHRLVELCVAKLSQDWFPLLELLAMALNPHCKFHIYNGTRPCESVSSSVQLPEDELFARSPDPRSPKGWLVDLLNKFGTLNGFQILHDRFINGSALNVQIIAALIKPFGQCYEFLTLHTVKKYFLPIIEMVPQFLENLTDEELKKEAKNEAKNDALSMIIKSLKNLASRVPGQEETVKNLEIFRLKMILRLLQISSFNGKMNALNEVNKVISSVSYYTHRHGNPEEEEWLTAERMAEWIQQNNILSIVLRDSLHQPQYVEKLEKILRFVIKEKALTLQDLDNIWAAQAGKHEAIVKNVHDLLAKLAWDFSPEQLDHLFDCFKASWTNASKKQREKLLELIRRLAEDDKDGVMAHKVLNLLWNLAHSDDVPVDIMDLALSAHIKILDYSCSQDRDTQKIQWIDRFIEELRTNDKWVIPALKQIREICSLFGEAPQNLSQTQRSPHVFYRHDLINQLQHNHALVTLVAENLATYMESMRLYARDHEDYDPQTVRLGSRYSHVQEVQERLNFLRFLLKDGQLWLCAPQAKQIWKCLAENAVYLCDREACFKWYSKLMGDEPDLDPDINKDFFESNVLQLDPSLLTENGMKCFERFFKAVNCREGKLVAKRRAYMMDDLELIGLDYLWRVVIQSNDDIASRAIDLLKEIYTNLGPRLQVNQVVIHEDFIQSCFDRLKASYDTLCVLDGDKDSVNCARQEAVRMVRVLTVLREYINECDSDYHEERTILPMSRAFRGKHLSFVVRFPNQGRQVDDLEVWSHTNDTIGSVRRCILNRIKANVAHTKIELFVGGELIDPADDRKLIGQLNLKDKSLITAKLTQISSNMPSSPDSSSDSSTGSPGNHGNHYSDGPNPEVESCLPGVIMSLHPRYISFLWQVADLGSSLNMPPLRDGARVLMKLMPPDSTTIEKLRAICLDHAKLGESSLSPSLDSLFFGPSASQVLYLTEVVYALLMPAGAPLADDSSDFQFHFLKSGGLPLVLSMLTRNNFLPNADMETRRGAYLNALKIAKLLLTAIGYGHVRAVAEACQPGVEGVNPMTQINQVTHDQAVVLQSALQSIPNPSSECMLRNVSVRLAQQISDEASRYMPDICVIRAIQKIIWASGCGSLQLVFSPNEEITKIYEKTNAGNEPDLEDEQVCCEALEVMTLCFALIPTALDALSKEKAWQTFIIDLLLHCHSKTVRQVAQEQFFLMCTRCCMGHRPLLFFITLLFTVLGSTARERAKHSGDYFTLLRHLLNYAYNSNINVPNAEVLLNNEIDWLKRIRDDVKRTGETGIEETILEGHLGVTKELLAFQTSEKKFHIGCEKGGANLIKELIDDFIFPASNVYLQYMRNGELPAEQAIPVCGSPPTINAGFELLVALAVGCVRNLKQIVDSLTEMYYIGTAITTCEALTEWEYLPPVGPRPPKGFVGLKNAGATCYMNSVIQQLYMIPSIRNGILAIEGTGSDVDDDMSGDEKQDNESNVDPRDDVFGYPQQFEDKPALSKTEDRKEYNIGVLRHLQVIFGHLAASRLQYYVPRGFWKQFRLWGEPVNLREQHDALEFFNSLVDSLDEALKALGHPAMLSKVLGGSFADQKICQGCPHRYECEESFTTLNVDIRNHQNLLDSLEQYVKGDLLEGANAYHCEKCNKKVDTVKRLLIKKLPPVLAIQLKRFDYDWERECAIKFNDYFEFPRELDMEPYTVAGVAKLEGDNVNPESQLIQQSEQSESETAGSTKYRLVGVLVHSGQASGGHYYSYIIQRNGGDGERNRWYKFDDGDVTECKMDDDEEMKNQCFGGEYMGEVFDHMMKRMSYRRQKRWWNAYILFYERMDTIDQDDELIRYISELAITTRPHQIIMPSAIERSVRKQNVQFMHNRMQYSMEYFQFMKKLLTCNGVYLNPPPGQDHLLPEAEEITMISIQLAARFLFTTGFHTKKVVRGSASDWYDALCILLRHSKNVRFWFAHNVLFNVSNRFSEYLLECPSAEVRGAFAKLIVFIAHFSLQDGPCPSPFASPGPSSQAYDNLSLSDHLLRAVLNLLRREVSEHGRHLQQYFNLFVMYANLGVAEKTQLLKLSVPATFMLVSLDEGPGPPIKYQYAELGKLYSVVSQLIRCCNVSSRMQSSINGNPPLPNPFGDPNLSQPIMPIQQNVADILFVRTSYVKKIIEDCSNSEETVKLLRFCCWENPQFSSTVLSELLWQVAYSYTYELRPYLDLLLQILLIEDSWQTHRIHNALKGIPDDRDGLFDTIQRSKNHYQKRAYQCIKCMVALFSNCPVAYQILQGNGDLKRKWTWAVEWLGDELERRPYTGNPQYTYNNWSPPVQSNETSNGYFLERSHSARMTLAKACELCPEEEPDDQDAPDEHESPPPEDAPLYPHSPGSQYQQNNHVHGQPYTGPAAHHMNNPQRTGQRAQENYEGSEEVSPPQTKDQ
# test: log2 ratio of Biotin-Ahx-Ub-VS probe labelling (fragment/DMSO); higher = less target engagement (more negative = stronger competition), active = hit call of the paper (q ≤ 0.05, log2 ratio ≤ -1)
# experimentalSetup: compound concentration: 200 uM; treatment time: 3 h
Overview of reported log2 ratio of Biotin-Ahx-Ub-VS probe labelling across a group of molecules:
quantity: log2 ratio of Biotin-Ahx-Ub-VS probe labelling

{"structureNotation": "CCN(C(=O)CCl)C1CCCCC1", "testedOn": "USP9X (UniProt Q93008)", "endpointValue": -0.0791}
{"structureNotation": "O=C(CCl)NCc1ccc(N2CCOCC2)c(F)c1", "testedOn": "USP9X (UniProt Q93008)", "endpointValue": -0.078}
{"structureNotation": "Cl.O=C(CCl)N1CC(c2ccc(Br)cn2)C1", "testedOn": "USP9X (UniProt Q93008)", "endpointValue": -0.297}

# credit: the supplement of paper PMC11732987
